// Ki lookup, one value per entry
- EXPERIMENTAL SYSTEM: T1, ClpXP protease (E. coli ClpX6 with ClpP14) (E. coli, UniProt P0A6H1 1-424; P0A6G7 15-207)
- T1 construct: Purified recombinant proteins mixed in the assay; also called SspB-ClpXP (when SspB is added); not shown: N-terminal His6 tag from pET28a; C-terminal His6 tag from pQE70
- T1 sequence (P0A6H1 whole entry, chain 1 of 2): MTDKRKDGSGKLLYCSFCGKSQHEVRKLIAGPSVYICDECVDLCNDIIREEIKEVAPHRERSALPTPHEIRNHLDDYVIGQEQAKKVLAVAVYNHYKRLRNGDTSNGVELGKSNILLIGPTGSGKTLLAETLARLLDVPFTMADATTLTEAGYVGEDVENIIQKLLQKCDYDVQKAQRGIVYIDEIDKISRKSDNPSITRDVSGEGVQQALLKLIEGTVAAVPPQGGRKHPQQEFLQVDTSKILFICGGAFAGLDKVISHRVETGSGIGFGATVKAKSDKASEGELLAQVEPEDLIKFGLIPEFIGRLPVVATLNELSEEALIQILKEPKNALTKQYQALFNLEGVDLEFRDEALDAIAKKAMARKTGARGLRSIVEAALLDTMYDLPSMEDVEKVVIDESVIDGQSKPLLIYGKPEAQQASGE
- T1 sequence (P0A6G7 15-207, chain 2 of 2): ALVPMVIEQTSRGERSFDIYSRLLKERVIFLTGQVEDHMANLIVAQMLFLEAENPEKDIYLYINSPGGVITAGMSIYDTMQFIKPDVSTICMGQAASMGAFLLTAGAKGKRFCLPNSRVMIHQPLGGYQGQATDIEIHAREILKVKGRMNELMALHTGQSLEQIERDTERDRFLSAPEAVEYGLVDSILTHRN
- PROTOCOL DETAILS: continuous fluorimetric assay of GFP-tag proteolysis by ClpXP, no SspB

{"BINDER": "SGWRVQGPL (head-to-tail cyclized (cyclic peptide), also called IXP4) [ICP2, cyclic SGWRVQGPL peptide]", "QUANTITY MEASURED": "Ki", "ASSAY VALUE": "> 1 mM"}

Asked: Look up Ki of CRGGRPALRVVK (The text calls XB the 11 C-terminal residues of E. coli SspB; also called linXB) [linear XB peptide, CRGGRPALRVVK] and report it.
Given back: > 1 mM

Asked: In one line, give reported Ki of the entry SGWPYKWM (head-to-tail cyclized (cyclic peptide), Arbitrary cyclic peptide from the SGWX5 library, negative control; also called arbitrary cyclic peptide) [Con62, cyclic SGWPYKWM peptide] .
Given back: > 1 mM

Sourced from patent US20090143241A1
